Cited source for all entries: paper PMC5540273

Collected %Inh values appear next to each entry.
Tested on: MST4
Conditions: concentration: 1 μM, replicates: in singlicate; n = 1;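 note: KINOMEscan kinase panel screen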
# output: bare number, implied unit %

Molecule | Target system | Unit annotation | %Inh
COc1cccc(-c2ccc3c(NC(=O)C4CC4)n[nH]c3n2)c1 [SB-710903] | MST4 | % | 0
O=C(Nc1cccc(-c2nn3ccccc3c2-c2ccnc(Nc3cccc(F)c3)n2)c1)c1c(F)ccc(F)c1Cl [GSK357952] | MST4 | % | 0
COc1cc(Nc2ncc3c(C)nc(-c4cc5ccccc5[nH]4)n3n2)cc(OC)c1OC [GW869516] | MST4 | % | 0

Look up %Inh: FC(F)(F)c1ccc(/C=C/c2cncnc2Nc2ccc3[nH]c(Cc4ccccc4)nc3c2)cc1 [GW709199]
0

Next: CSc1cccc2c(-c3ccncn3)c(-c3ccc(F)cc3)nn12 [GW514786]
6

Next: COc1cc(Nc2nccc(N3CCC(NC(=O)c4cc5ccccc5s4)C3)n2)cc(OC)c1OC (stereo not drawn) [GSK1379760]
100

Next: COc1cc2c(cc1OCCN1CCNCC1)ncc1c3ccc(C#N)cc3[nH]c21
28

Next: Nc1ncnc2c1nc(-c1ccccc1)n2-c1ccccc1 [SKF-97293]
24

Next: Fc1ccc(-c2ncn(C3CCNCC3)c2-c2ccnc(Oc3ccc(-c4ccccc4)cc3)n2)cc1 [SB-245391]
31

Next: CCCCc1nn2ncccc2c1-c1ccnc(Nc2ccc(N3CCN(C)CC3)cc2)n1 [GW684941]
0

Next: CN(C)Cc1ccc(-c2ccc3c(Nc4ccc(Oc5ccccn5)cc4)ccnc3c2)o1 [GW567148]
0

Next: Cc1ccc(F)c(C(=O)Nc2cccc(-c3nn4ccccc4c3-c3ccnc(Nc4cccc(F)c4)n3)c2)c1F [GSK361061]
15

Next: O=C(O)C(F)(F)F.O=C(O)C(F)(F)F.O=c1[nH]ccc2nc(N[C@@H]3CCCNC3)nc(Nc3ccc(S(=O)(=O)N4CCOCC4)cc3)c12 [GSK2177277]
98.9

Next: CCS(=O)(=O)c1ccc(OC)c(Nc2nccc(-c3c(-c4cccc(NC(=O)c5c(F)cccc5F)c4)nn4ncccc34)n2)c1 [GSK326180]
0

Next: Cc1occc1-c1ncc(OC[C@@H](N)Cc2c[nH]c3ccccc23)cc1-c1ccc2[nH]nc(C)c2c1.O=C(O)C(F)(F)F [GSK682037]
85

Next: CC(=O)N1CCN(c2ccc(Nc3nccc(-c4sc(C(C)C)nc4-c4cccc(NS(=O)(=O)c5cccc(Cl)c5)c4)n3)cn2)CC1 [GSK1660437]
1

Next: O=c1[nH]cc(-c2ccc(N3CCOCC3)cc2)c2sc(-c3cn[nH]c3)cc12 [GSK2276055]
0

Next: Cn1cc(-c2ccc3c(c2)CCN3C(=O)Cc2cccc(Cl)c2)c2c(N)ncnc21 [GSK2606590]
19

###

Tested on: PCTK2
Construct: gene CDK17
Details: concentration: 1 μM, replicates: in singlicate; n = 1
Collected %Inh values appear next to each entry.
# output: bare number, implied unit %

Compound | Target system | %Inh (%)
COc1cccc(-c2ccc3c(NC(=O)C4CC4)n[nH]c3n2)c1 [SB-710903] | PCTK2 | 19
Nc1ncc(-c2cccnc2)c2scc(-c3ccc4c(c3)CCN4C(=O)Cc3ccccc3)c12 [GSK683281] | PCTK2 | 8
Nc1ncc(-c2ccc3nccc(-c4ccncc4)c3c2)cc1S(=O)(=O)N1CCOCC1 [GSK1627798] | PCTK2 | 21
CN1CCN(CCCNc2nccc(-c3c(-c4ccc(F)cc4)nn4cc(C(F)(F)F)ccc34)n2)CC1 [GW621581] | PCTK2 | 0
O=C(Nc1n[nH]c2nc(-c3ccc(O)cc3)ccc12)C1CC1 [SB-710363] | PCTK2 | 56

Look up %Inh: O=C(O)C(F)(F)F.O=C(O)C(F)(F)F.O=c1[nH]ccc2nc(N[C@@H]3CCCNC3)nc(Nc3ccc(S(=O)(=O)N4CCOCC4)cc3)c12 [GSK2177277]
98.3

Next: COCCOCCOc1cc2ncc3c4ccc(C#N)cc4[nH]c3c2cc1OC
6
